# MEASUREMENT TARGET: bovine cardiac myofibrils (full-length cardiac myosin ATPase in the native sarcomere) (Bos taurus (Bovine))
# Sequence (Q9BE39 whole entry): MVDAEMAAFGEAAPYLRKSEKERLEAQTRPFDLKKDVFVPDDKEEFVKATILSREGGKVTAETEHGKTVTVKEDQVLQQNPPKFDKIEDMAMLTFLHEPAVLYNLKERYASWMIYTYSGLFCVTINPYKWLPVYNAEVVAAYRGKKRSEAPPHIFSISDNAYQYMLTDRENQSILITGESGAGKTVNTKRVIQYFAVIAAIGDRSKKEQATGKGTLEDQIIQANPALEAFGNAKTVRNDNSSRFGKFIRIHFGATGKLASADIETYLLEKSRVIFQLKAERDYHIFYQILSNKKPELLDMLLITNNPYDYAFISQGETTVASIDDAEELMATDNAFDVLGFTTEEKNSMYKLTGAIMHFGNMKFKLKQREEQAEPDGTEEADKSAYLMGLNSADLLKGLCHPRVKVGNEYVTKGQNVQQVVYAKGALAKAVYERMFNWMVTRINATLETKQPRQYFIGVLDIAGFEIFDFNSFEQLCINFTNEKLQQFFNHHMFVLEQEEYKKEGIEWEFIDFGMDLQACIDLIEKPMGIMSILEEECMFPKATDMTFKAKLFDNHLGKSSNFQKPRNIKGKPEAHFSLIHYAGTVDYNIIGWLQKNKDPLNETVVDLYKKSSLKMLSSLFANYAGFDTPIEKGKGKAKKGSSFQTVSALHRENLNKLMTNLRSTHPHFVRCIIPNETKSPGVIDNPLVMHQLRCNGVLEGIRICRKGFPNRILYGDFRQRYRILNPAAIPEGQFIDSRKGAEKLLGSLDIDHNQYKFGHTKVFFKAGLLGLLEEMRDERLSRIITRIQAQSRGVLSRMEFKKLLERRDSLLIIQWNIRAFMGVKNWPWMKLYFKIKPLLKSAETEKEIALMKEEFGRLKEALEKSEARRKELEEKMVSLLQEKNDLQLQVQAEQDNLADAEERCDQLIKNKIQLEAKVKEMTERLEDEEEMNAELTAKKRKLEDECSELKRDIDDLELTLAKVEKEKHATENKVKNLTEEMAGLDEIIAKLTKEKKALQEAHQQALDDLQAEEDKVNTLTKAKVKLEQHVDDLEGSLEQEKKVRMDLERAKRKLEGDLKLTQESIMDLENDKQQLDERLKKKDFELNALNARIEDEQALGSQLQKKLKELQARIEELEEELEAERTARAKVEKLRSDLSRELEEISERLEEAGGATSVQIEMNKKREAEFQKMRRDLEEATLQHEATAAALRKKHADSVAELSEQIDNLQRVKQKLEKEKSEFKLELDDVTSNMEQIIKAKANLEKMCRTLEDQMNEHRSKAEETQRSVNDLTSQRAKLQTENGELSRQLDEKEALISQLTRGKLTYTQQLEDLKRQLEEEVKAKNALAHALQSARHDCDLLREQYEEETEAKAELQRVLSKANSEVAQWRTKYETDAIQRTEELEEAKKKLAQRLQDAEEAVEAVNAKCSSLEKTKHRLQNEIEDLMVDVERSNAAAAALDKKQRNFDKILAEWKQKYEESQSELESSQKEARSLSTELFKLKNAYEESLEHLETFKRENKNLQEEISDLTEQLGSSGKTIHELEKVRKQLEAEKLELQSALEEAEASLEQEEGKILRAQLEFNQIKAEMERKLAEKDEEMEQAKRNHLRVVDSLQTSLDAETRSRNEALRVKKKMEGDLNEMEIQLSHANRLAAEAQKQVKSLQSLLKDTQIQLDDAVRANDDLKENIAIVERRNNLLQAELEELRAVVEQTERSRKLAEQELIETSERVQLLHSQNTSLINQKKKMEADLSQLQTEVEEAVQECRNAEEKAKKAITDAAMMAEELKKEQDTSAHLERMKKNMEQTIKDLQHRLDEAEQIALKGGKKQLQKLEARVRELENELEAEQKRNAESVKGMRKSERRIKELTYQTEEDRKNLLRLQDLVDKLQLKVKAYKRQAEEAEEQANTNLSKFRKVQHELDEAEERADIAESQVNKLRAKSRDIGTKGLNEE
# Sequence (P85100 whole entry partner): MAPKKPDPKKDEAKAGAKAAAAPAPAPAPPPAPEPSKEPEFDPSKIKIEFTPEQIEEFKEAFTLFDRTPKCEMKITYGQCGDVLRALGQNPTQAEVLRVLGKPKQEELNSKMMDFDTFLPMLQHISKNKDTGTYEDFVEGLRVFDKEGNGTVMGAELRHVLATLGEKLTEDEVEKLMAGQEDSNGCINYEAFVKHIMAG
# Sequence (Q3SZE5 whole entry partner): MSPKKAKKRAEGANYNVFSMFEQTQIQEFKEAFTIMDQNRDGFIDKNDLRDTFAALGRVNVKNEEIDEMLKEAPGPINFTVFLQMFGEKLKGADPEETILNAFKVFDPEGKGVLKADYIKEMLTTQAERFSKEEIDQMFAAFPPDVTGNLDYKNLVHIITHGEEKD
# ASSAY INFO: Skinned bovine cardiac myofibril ATPase assay (PK/LDH-coupled)
# RECORDED CONDITIONS: Ca2+ activating to 75% of maximal rate, read-out: CDMF75 IC50
REPORTED ENDPOINT: IC50 (µM)

For orientation, consider the following solved cases.
INSERT INTO measurements (item_smiles, val) VALUES
  ('Cc1ccc(-c2ccc3c(c2)CC[C@H]3NC(=O)c2ccnn2C)cc1', 6.4),
  ('COCc1nc(-c2ccc3c(c2)OC[C@H]3NC(=O)c2cccc([C@H](C)O)c2)no1', 5.4);

[I] [2H]C([2H])([2H])c1nc(-c2ccc3c(c2)CC[C@H]3NC(=O)c2cnn(C)c2)no1
[II] Cc1nc(-c2ccc3c(c2)OC[C@H]3NC(=O)c2cccc(CO)c2)no1
Input: Please let me know which one, I or II , has a lower measured IC50 value. State your choice using its label.
Output: II

----------
# MEASUREMENT TARGET: bovine cardiac myofibrils (full-length cardiac myosin ATPase in the native sarcomere) (Bos taurus (Bovine))
# ASSAY INFO: Skinned bovine cardiac myofibril ATPase assay (PK/LDH-coupled)
# RECORDED CONDITIONS: Ca2+ activating to 75% of maximal rate, read-out: CDMF75 IC50
# Description: To evaluate the effect of compounds on the ATPase activity of full-length cardiac myosin in the context of the native sarcomere, skinned myofibril assays were performed. […] Small molecule agents were assessed for their ability to inhibit the steady-state ATPase activity of bovine cardiac myofibrils using pyruvate kinase and lactate dehydrogenase (PK/LDH)-coupled enzyme system. This assay regenerates myosin-produced ADP into ATP by oxidizing NADH, producing an absorbance change at 340 nm. […]
pIC50: −log10 of the molar value.
REPORTED ENDPOINT: pIC50

INSERT INTO assay_data (molecule, reported_endpoint, val) VALUES
  ('Cc1ccnc(-c2ccc3c(c2)CC[C@H]3NC(=O)c2ccnn2C)n1 [Compound 378]', 'pIC50', 4.91);

[I] CCC(=O)N[C@@H]1CCc2cc(-c3noc(CC)n3)ccc21 [Compound 317]
[II] CCc1nc(-c2ccc3c(c2)CC[C@H]3NC(=O)N2CC[C@@H](O)C2)no1 [Compound 724]
Input: Lab notebook, comparison: I versus II , higher pIC50 goes to which? State your choice using its label.
Output: II

[1] Cn1ncc(C(=O)NC2CCc3cc(-c4noc(C(F)F)n4)ccc32)n1 (centres unmarked) [Compound 83]
[2] Cc1cc(C(=O)N[C@@H]2CCc3cc(-c4noc(C5CC5)n4)ccc32)ccn1 [Compound 389]
Input: Please let me know which one, 1 or 2 , has a lower measured pIC50 value. State your choice using its label.
Output: 1

----------
# MEASUREMENT TARGET: bovine cardiac myofibrils (full-length cardiac myosin ATPase in the native sarcomere) (Bos taurus (Bovine))
# ASSAY INFO: Skinned bovine cardiac myofibril ATPase assay (PK/LDH-coupled)
# RECORDED CONDITIONS: Ca2+ activating to 75% of maximal rate, read-out: CDMF75 IC50
pIC50: −log10 of the molar value.
REPORTED ENDPOINT: pIC50

For orientation, consider the following solved cases.
INSERT INTO results (molecule, reported_endpoint, val) VALUES
  ('CCc1nc(-c2ccc3c(c2)CC[C@H]3NC(=O)c2cn(CCCO)nc2C)no1', 'pIC50', 5.68),
  ('CCc1nc(-c2ccc3c(c2)CC[C@H]3NC(=O)c2cnn(CC3COC3)c2)no1', 'pIC50', 4.70),
  ('Cc1n[nH]cc1C(=O)N[C@@H]1CCc2cc(-c3noc(C4CC4)n3)ccc21', 'pIC50', 5.85),
  ('CCc1nc(-c2ccc3c(c2)OC[C@H]3NC(C)=O)no1', 'pIC50', 5.59),
  ('Cc1cc(C(=O)NC2CCc3cc(-c4noc(C)n4)ccc32)on1 (centres unmarked)', 'pIC50', 5.09);

[A] Cc1cnoc1C(=O)N[C@@H]1CCc2cc(-c3noc(C4CC4)n3)ccc21
[B] CCc1cc(-c2ccc3c(c2)CC[C@H]3NC(=O)c2cnn(C)c2)no1
[C] Cc1nc(-c2ccc3c(c2)CCC3NC(=O)c2ccnc(O)c2)no1 (centres unmarked)
[D] COCc1nc(-c2ccc3c(c2)CC[C@H]3NC(=O)c2nnc(C)o2)no1 [Compound 698]
Input: List the 4 entries from lowest pIC50 to highest pIC50 value. Please respond by ranking the labels in the order requested.
Output: C, D, B, A
(C: 4.85, D: 5.46, B: 5.82, A: 6.05)
